The reported measurements were obtained from ChEMBL document CHEMBL1141545.

assay: Selectivity for CDK2 over CDK1
parameter: Ratio IC50

Reported Ratio IC50, molecule O=C(Cc1cccc(F)c1)Nc1n[nH]c2ccc(N3CCCS3(=O)=O)cc12 : ____
< 10

Reported Ratio IC50, molecule O=C(Cc1ccc(-c2ccncc2)cc1)Nc1n[nH]c2ccc(N3CCCS3(=O)=O)cc12 : ____
< 10

Reported Ratio IC50, molecule O=C(Cc1ccc(Br)cc1)Nc1n[nH]c2ccc(N3CCCS3(=O)=O)cc12 : ____
< 10

* * *

target: Cyclin-dependent kinase 1 (Homo sapiens, UniProt P06493)
Sequence (P06493 whole entry): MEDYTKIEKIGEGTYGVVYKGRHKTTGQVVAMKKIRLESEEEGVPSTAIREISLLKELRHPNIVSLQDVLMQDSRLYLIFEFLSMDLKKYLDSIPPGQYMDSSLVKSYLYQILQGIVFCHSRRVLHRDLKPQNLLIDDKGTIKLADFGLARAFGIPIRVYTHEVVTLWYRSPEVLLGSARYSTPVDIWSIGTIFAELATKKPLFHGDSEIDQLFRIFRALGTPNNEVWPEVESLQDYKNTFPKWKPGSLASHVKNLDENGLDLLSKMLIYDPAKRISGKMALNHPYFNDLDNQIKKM
parameter: IC50 (nM)

smiles.input	value.units	observed.value
O=C(Cc1ccc2ccccc2c1)Nc1n[nH]c2ccc(N3CCCS3(=O)=O)cc12	nM	40
Cc1cccc(CC(=O)Nc2n[nH]c3ccc(N4CCCS4(=O)=O)cc23)c1	nM	50

P: CCN(CC)c1ccc(CC(=O)Nc2n[nH]c3ccc(N4CCCS4(=O)=O)cc23)cc1
Q: O=C(Cc1ccc(Br)cc1)Nc1n[nH]c2ccc(N3CCCS3(=O)=O)cc12
// pick min by IC50: P , Q Reply with the label of the item you choose.
Q

* * *

molecular target: Cyclin-dependent kinase 4 (Homo sapiens); experiment: Inhibition of CDK4
Sequence (P11802 whole entry): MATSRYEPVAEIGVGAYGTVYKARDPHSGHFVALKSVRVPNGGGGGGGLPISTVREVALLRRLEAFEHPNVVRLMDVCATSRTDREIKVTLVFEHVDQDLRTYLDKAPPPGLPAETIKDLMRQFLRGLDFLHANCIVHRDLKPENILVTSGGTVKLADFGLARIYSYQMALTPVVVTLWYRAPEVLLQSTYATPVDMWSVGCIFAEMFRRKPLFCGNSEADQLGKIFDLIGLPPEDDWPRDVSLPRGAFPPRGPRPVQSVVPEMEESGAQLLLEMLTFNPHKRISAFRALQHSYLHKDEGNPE
parameter: IC50 (nM)

smiles.input	value.units	IC50
Cc1cccc(CC(=O)Nc2n[nH]c3ccc(N4CCCS4(=O)=O)cc23)c1	nM	4000

1: O=C(Cc1ccc2ccccc2c1)Nc1n[nH]c2ccc(N3CCCS3(=O)=O)cc12
2: O=C(Cc1ccccc1Cl)Nc1n[nH]c2ccc(N3CCCS3(=O)=O)cc12
3: O=C(Cc1ccccc1)Nc1n[nH]c2ccc(N3CCCS3(=O)=O)cc12
Task for the reader: rank each entry by its IC50, from the minimum upward. Dear reader, please state the labels in the requested order.
2, 1, 3
(2: 890 nM, 1: 1600 nM, 3: 3700 nM)

a: Cc1ccc(CC(=O)Nc2n[nH]c3ccc(N4CCCS4(=O)=O)cc23)cc1
b: O=C(Cc1cccc(F)c1)Nc1n[nH]c2ccc(N3CCCS3(=O)=O)cc12
Hi, I'm comparing a with b and wondering which one has the bigger number for IC50. Any idea? Reply with the label of the item you choose.
a

* * *

Observed IC50 for Cyclin-dependent kinase 2 (Homo sapiens), reported per entry below.
parameter: IC50 (nM)

a: O=C(Cc1ccc2ccccc2c1)Nc1n[nH]c2ccc(N3CCCS3(=O)=O)cc12
b: Nc1ccc(CC(=O)Nc2n[nH]c3ccc(N4CCCS4(=O)=O)cc23)cc1
c: O=C(Cc1ccccc1)Nc1n[nH]c2ccc(N3CCCS3(=O)=O)cc12
d: O=C(Cc1ccccc1)Nc1n[nH]c2ccc(N3CCCCC3=O)cc12
e: O=C(Cc1ccccc1)Nc1n[nH]c2ccc(N3CCCC3=O)cc12
Hey, can you sort those molecules up there by IC50, smallest first? Dear reader, please state the labels in the requested order.
a, b, c, e, d
(a: 9 nM, b: 16 nM, c: 36 nM, e: 170 nM, d: 7100 nM)

P: O=C(Cc1ccc(F)cc1)Nc1n[nH]c2ccc(N3CCCS3(=O)=O)cc12
Q: O=C(Cc1ccc(Br)cc1)Nc1n[nH]c2ccc(N3CCCS3(=O)=O)cc12
// pick min by IC50: P , Q Reply with the label of the item you choose.
Q

I: O=C(Cc1cccc2ccccc12)Nc1n[nH]c2ccc(N3CCCS3(=O)=O)cc12
II: O=C(Cc1cccc(Cl)c1)Nc1n[nH]c2ccc(N3CCCS3(=O)=O)cc12
III: O=C(Cc1ccc(-c2ccncc2)cc1)Nc1n[nH]c2ccc(N3CCCS3(=O)=O)cc12
IV: CCCN(CCC)c1ccc2[nH]nc(NC(=O)Cc3ccccc3)c2c1
Sort the 4 molecules by IC50; largest first, smallest last. Dear reader, please state the labels in the requested order.
IV, III, I, II

A: CSc1ccc(CC(=O)Nc2n[nH]c3ccc(N4CCCS4(=O)=O)cc23)cc1
B: CS(=O)(=O)c1ccc(CC(=O)Nc2n[nH]c3ccc(N4CCCS4(=O)=O)cc23)cc1
C: O=C(Cc1ccccc1)Nc1n[nH]c2ccc(N3C(=O)CNC3=O)cc12
Task for the reader: rank each entry by its IC50, from the minimum upward. Dear reader, please state the labels in the requested order.
A, B, C

* * *

biological target: Cyclin-dependent kinase 1 (Homo sapiens, UniProt P06493)
parameter: IC50 (nM)

Reference set, count: 3
smiles.input	IC50, nM
O=C(Cc1cccc2ccccc12)Nc1n[nH]c2ccc(N3CCCS3(=O)=O)cc12	67
O=C(Cc1cccc(Cl)c1)Nc1n[nH]c2ccc(N3CCCS3(=O)=O)cc12	34
O=C(Cc1ccc(N2CCCCC2)cc1)Nc1n[nH]c2ccc(N3CCCS3(=O)=O)cc12	150

a: O=C(Cc1cccc(F)c1)Nc1n[nH]c2ccc(N3CCCS3(=O)=O)cc12
b: Nc1ccc(CC(=O)Nc2n[nH]c3ccc(N4CCCS4(=O)=O)cc23)cc1
c: CS(=O)(=O)c1ccc(CC(=O)Nc2n[nH]c3ccc(N4CCCS4(=O)=O)cc23)cc1
Sort the 3 molecules by IC50; largest first, smallest last. Dear reader, please state the labels in the requested order.
c, b, a

* * *

target: Cyclin-dependent kinase 2 (Homo sapiens)
parameter: IC50 (nM)

smiles.input	study.system	IC50 [nM]
O=C(Cc1ccc(Cl)cc1)Nc1n[nH]c2ccc(N3CCCS3(=O)=O)cc12	Cyclin-dependent kinase 2 (Homo sapiens)	10
CN(C)c1ccc(CC(=O)Nc2n[nH]c3ccc(N4CCCS4(=O)=O)cc23)cc1	Cyclin-dependent kinase 2 (Homo sapiens)	10
O=C(Cc1cccc(F)c1)Nc1n[nH]c2ccc(N3CCCS3(=O)=O)cc12	Cyclin-dependent kinase 2 (Homo sapiens)	10
O=C(Cc1ccc(O)cc1)Nc1n[nH]c2ccc(N3CCCS3(=O)=O)cc12	Cyclin-dependent kinase 2 (Homo sapiens)	9
Cc1cccc(CC(=O)Nc2n[nH]c3ccc(N4CCCS4(=O)=O)cc23)c1	Cyclin-dependent kinase 2 (Homo sapiens)	10
